Assay: Selectivity index, ratio of LC50 for mouse NCTC-929 cells to IC50 for epimastigotes of Trypanosoma cruzi CL Brener
Type: toxicity, cell-based
Conditions: read-out: Ratio LC50/IC50
Property: selectivity ratio; scope: individual compounds

Some compounds with known selectivity ratio results, for comparison:
In [3]: df
Out[3]:
                                   compound  result
0  CCc1ccc2c(c1)[C@@H](c1ccc(OC)cc1)[C@H](C)[C@@H](c1ccccc1)N2  > 71.1
1  COc1cc([C@@H]2c3cccc(C#N)c3N[C@H](c3ccc(O)cc3)[C@H]2C)ccc1O    1.59
2  COc1ccc([C@@H]2c3cc(OC)ccc3N[C@H](c3ccccc3)[C@H]2C)cc1    > 32
3  COc1cc([C@@H]2c3ccccc3N[C@H](c3ccccc3)[C@H]2C)ccc1O  > 1.63
4  COc1ccc([C@@H]2c3cc(N)ccc3N[C@H](c3ccccc3)[C@H]2C)cc1  > 1.19

As a next step, examine the compound that follows.
stdin: Dear colleague, I am looking for the recorded selectivity ratio of the following compound: COc1ccc([C@@H]2c3cc(OC)ccc3N(Cc3ccccc3)C[C@H]2C)cc1
stdout: > 33.4

====

Assay: Selectivity index, ratio of LC50 for mouse NCTC-929 cells to IC50 for amastigotes of Trypanosoma cruzi CL Brener
Format: toxicity, cell-based
Settings: read-out: Ratio LC50/IC50
Experimental Endpoint: selectivity ratio

>>> df
                                   compound  result
0  COc1cc([C@@H]2c3cccc(C#N)c3N[C@H](c3ccc([N+](=O)[O-])cc3)[C@H]2C)ccc1O    27.8
1  COc1ccc([C@@H]2c3cc(OC)ccc3N[C@H](c3ccccc3)[C@H]2C)cc1    > 32
2  COc1ccc([C@@H]2c3cc(OC)ccc3N(Cc3ccccc3)C[C@H]2C)cc1  > 59.9
3  O=C(Cn1ccnc1[N+](=O)[O-])NCc1ccccc1 [BENZNIDAZOLE]   > 320
4  CCc1ccc2c(c1)[C@@H](c1ccc(OC)cc1)[C@H](C)[C@@H](c1ccccc1)N2  > 35.9

As a next step, examine the compound that follows.
stdin: Dear colleague, I am looking for the recorded selectivity ratio of the following compound: COc1ccc([C@@H]2c3ccccc3N[C@H](c3ccccc3)[C@H]2C)cc1
stdout: > 36

====

Property: Activity; scope: individual compounds
Experiment: Cytotoxicity against mouse NCTC-929 cells at 256 uM after 48 hrs by resazurin based fluorescence assay
Format: cell-based
Details: nctc-929, 48 h
Record the value in %, omitting the unit from your answer.

In [3]: df
Out[3]:
                           substance_smiles  experimental_endpoint  quantitative_result
0  COc1cc([C@@H]2c3cccc([N+](=O)[O-])c3N[C@H](c3ccc([N+](=O)[O-])cc3)[C@H]2C)ccc1O               Activity                87.71
1  COc1ccc([C@@H]2c3cccc(N)c3N[C@H](c3ccccc3)[C@H]2C)cc1               Activity                66.33
2  COc1cc([C@@H]2c3cccc([N+](=O)[O-])c3N[C@H](c3ccc(O)cc3)[C@H]2C)ccc1O               Activity                85.46

stdin: Dear colleague, I am looking for the recorded Activity of the following compound: CCc1ccc2c(c1)[C@@H](c1ccc(OC)cc1)[C@H](C)[C@@H](c1ccccc1)N2
stdout: 0

====

Test: Selectivity index, ratio of LC50 for mouse NCTC-929 cells to IC50 for epimastigotes of Trypanosoma cruzi CL Brener
Type: toxicity, cell-based
Conditions: read-out: Ratio LC50/IC50
Property: selectivity ratio; scope: individual molecules

stdin: Dear colleague, I am looking for the recorded selectivity ratio of the following molecule: COc1ccc([C@@H]2c3c(cccc3[N+](=O)[O-])N[C@H](c3ccccc3)[C@H]2C)cc1
stdout: > 3.45

stdin: Dear colleague, I am looking for the recorded selectivity ratio of the following molecule: COc1ccc([C@@H]2c3cc([N+](=O)[O-])ccc3N[C@H](c3ccccc3)[C@H]2C)cc1
stdout: > 2

stdin: Dear colleague, I am looking for the recorded selectivity ratio of the following molecule: COc1cc([C@@H]2c3cccc([N+](=O)[O-])c3N[C@H](c3ccc(O)cc3)[C@H]2C)ccc1O
stdout: > 1.79

stdin: Dear colleague, I am looking for the recorded selectivity ratio of the following molecule: COc1cc([C@@H]2c3cccc(C#N)c3N[C@H](c3ccc([N+](=O)[O-])cc3)[C@H]2C)ccc1O
stdout: 48.6

====

Assay: Cytotoxicity against mouse NCTC-929 cells after 48 hrs by resazurin based fluorescence assay
Type: cell-based
Conditions: NCTC-929 cells, read-out: LC50
Lab note: cut-off is 10 µM. Strictly less in CC50 at 48 h is true (1). Exactly 10 µM or more is false (0).

In [3]: df
Out[3]:
                           substance_smiles      group
0  COc1cc([C@@H]2c3cccc([N+](=O)[O-])c3N[C@H](c3ccc(O)cc3)[C@H]2C)ccc1O  false (0)

stdin: Is CC50 at 48 h of COc1ccc([C@@H]2c3cc(OC)ccc3N[C@H](c3ccccc3)[C@H]2C)cc1 strictly below 10 µM?
stdout: false (0)

stdin: Is CC50 at 48 h of COc1ccc([C@@H]2c3cc(N)ccc3N[C@H](c3ccccc3)[C@H]2C)cc1 strictly below 10 µM?
stdout: true (1)

====

Assay: Cytotoxicity against mouse NCTC-929 cells at 256 uM after 48 hrs by resazurin based fluorescence assay
Format: cell-based
Conditions: nctc-929, 48 h
Property: Activity; scope: individual molecules
Record the value in %, omitting the unit from your answer.

Some molecules with known Activity results, for comparison:
>>> print(df.to_string())
                                   molecule  quantitative_result
0  COc1cc([C@@H]2c3cccc(C#N)c3N[C@H](c3ccccc3)[C@H]2C)ccc1O                86.23
1  O=C(Cn1ccnc1[N+](=O)[O-])NCc1ccccc1 [BENZNIDAZOLE]                17.38
2  COc1ccc([C@@H]2c3cc(Cl)ccc3N[C@H](c3ccccc3)[C@H]2C)cc1                11.72
3  COc1ccc([C@@H]2c3ccccc3N[C@H](c3ccccc3)[C@H]2C)cc1                43.05
4  COc1ccc([C@@H]2c3cc(OC)ccc3N[C@H](c3ccccc3)[C@H]2C)cc1                    0

stdin: Dear colleague, I am looking for the recorded Activity of the following molecule: COc1cc([C@@H]2c3cccc([N+](=O)[O-])c3N[C@H](c3ccccc3)[C@H]2C)ccc1O
stdout: 84.75

stdin: Dear colleague, I am looking for the recorded Activity of the following molecule: COc1cc([C@@H]2c3cccc(C#N)c3N[C@H](c3ccc([N+](=O)[O-])cc3)[C@H]2C)ccc1O
stdout: 48.76

stdin: Dear colleague, I am looking for the recorded Activity of the following molecule: COc1ccc([C@@H]2c3ccc([N+](=O)[O-])cc3N[C@H](c3ccccc3)[C@H]2C)cc1
stdout: 8.43

====

Experiment: Selectivity index, ratio of LC50 for mouse NCTC-929 cells to IC50 for epimastigotes of Trypanosoma cruzi CL Brener
Format: toxicity, cell-based
Settings: read-out: Ratio LC50/IC50
Experimental Endpoint: selectivity ratio
When you answer, write just the number.

                           substance_smiles  experimental_endpoint  quantitative_result
0  COc1cc([C@@H]2c3cccc(C#N)c3N[C@H](c3ccccc3)[C@H]2C)ccc1O      selectivity ratio                 0.93

As a next step, examine the molecule that follows.
stdin: Dear colleague, I am looking for the recorded selectivity ratio of the following molecule: COc1ccc([C@@H]2c3cc(Cl)ccc3N(Cc3ccccc3)C[C@H]2C)cc1
stdout: 3.69

====

Test: Cytotoxicity against mouse NCTC-929 cells after 48 hrs by resazurin based fluorescence assay
Type: cell-based
Conditions: NCTC-929 cells, read-out: LC50
Property: CC50 at 48 h; scope: individual compounds

Some compounds with known CC50 at 48 h results, for comparison:
>>> df
                           substance_smiles    result
0  COc1ccc([C@@H]2c3cccc([N+](=O)[O-])c3N[C@H](c3ccccc3)[C@H]2C)cc1   28.4 µM
1  COc1cc([C@@H]2c3cccc([N+](=O)[O-])c3N[C@H](c3ccccc3)[C@H]2C)ccc1O    < 8 µM
2  COc1cc([C@@H]2c3cccc(C#N)c3N[C@H](c3ccc([N+](=O)[O-])cc3)[C@H]2C)ccc1O    213 µM
3  COc1ccc([C@@H]2c3cc([N+](=O)[O-])ccc3N[C@H](c3ccccc3)[C@H]2C)cc1     16 µM
4  COc1ccc([C@@H]2c3cc(Cl)ccc3N(Cc3ccccc3)C[C@H]2C)cc1   23.6 µM
5       O=C(Cn1ccnc1[N+](=O)[O-])NCc1ccccc1  > 256 µM

stdin: Dear colleague, I am looking for the recorded CC50 at 48 h of the following compound: COc1cc([C@@H]2c3cccc(N)c3N[C@H](c3ccccc3)[C@H]2C)ccc1O
stdout: < 8 µM

stdin: Dear colleague, I am looking for the recorded CC50 at 48 h of the following compound: COc1cc([C@@H]2c3cccc([N+](=O)[O-])c3N[C@H](c3ccccc3[N+](=O)[O-])[C@H]2C)ccc1O
stdout: 15.9 µM

stdin: Dear colleague, I am looking for the recorded CC50 at 48 h of the following compound: COc1ccc([C@@H]2c3cc(OC)ccc3N(Cc3ccccc3)C[C@H]2C)cc1
stdout: > 256 µM

stdin: Dear colleague, I am looking for the recorded CC50 at 48 h of the following compound: COc1cc([C@@H]2c3cccc([N+](=O)[O-])c3N[C@H](c3ccc([N+](=O)[O-])cc3)[C@H]2C)ccc1O
stdout: < 8 µM

stdin: Dear colleague, I am looking for the recorded CC50 at 48 h of the following compound: COc1ccc([C@@H]2c3ccccc3N[C@H](c3ccccc3)[C@H]2C)cc1
stdout: > 256 µM

stdin: Dear colleague, I am looking for the recorded CC50 at 48 h of the following compound: COc1ccc([C@@H]2c3c(cccc3[N+](=O)[O-])N[C@H](c3ccccc3)[C@H]2C)cc1
stdout: 27.6 µM

stdin: Dear colleague, I am looking for the recorded CC50 at 48 h of the following compound: CCc1ccc2c(c1)[C@@H](c1ccc(OC)cc1)[C@H](C)[C@@H](c1ccccc1)N2
stdout: > 256 µM

stdin: Dear colleague, I am looking for the recorded CC50 at 48 h of the following compound: COc1cc([C@@H]2c3cccc(C#N)c3N[C@H](c3ccccc3)[C@H]2C)ccc1O
stdout: 7.75 µM

stdin: Dear colleague, I am looking for the recorded CC50 at 48 h of the following compound: COc1cc([C@@H]2c3ccccc3N[C@H](c3ccccc3)[C@H]2C)ccc1O
stdout: 13 µM

stdin: Dear colleague, I am looking for the recorded CC50 at 48 h of the following compound: COc1cc([C@@H]2c3cccc(C#N)c3N[C@H](c3ccc(O)cc3)[C@H]2C)ccc1O
stdout: 12.8 µM
